System: Nucleic Acid
Assay: Binding affinity to calf thymus DNA assessed as change in melting temperature at 20 uM at pH 7 incubated for 18 hrs at 37 degC by thermal denaturation assay
Format: nucleic-acid assay
Conditions: Bos taurus
Exercise: for every item that follows, state its recorded ΔTm.
One number for each entry, in °C.

See these solved cases before continuing.
Smiles representation	Test result
COc1cc2c(cc1OCCCOc1ccc(-n3c(C)nc4ccccc4c3=O)cc1)N=C[C@@H]1CCCN1C2=O	2
COc1cc2c(cc1OCCCCOc1ccc3nc(C)n(-c4ccc(Cl)cc4Cl)c(=O)c3c1)N=C[C@@H]1CCCN1C2=O	2.3

Please report ΔTm for every entry that follows.
1. COc1cc2c(cc1O)N=C[C@@H]1CCCN1C2=O
2. COc1cc2c(cc1OCCCCCOc1ccc3nc(C)n(-c4ccc(F)cc4)c(=O)c3c1)N=C[C@@H]1CCCN1C2=O

1: 0.7; 2: 2.2

Please give ΔTm, item by item, for the list that follows.
1. COc1cc2c(cc1OCCCCCOc1ccc(-n3c(C)nc4ccccc4c3=O)cc1)N=C[C@@H]1CCCN1C2=O
2. COc1cc2c(cc1OCCCCCOc1ccc(-n3c(/C=C/c4ccccc4)nc4ccccc4c3=O)cc1)N=C[C@@H]1CCCN1C2=O

1. 2.3
2. 2
